Provenance of the data: PubChem BioAssay (NCI)

Test system: SR leukemia
assay explanation: NCI tumour cell line growth inhibition, 48 h
Provide the recorded TGI for the entries that follow.

Examples with their reported TGI follow.
cpd smiles | TGI
O=C(O)c1cccc(OCCO)c1 | > 100 µM
CCN(CC)c1ccc2cc(-c3nnc(-c4ccccc4)o3)c(=O)oc2c1 | > 100 µM
COn1cc(C=O)c2ccccc21 | > 71.4 µM
C#CCn1ncc2c(SCc3ccccc3)ncnc21 | > 100 µM

Challenge: // returns reported TGI for input Cc1cn2c(=O)c3ccccc3nc2s1
Response given: > 100 µM

###

Test system: MDA-MB-231 breast
assay explanation: NCI tumour cell line growth inhibition, 48 h
assay endpoint: TGI

Examples with their reported TGI follow.
molecule | TGI
Fc1ccc(Nc2cc(-n3nnc4ccccc43)nc3ccccc23)cc1 | > 49.2 µM
CC(=O)O[C@@H]1C[C@]2(C(C)C)O[C@@]1(C)[C@@H]1CCC(C)=C1[C@@H]2OC(=O)/C=C/c1ccccc1 | > 100 µM
COc1ccc2c3c1O[C@H]1C(O)CCC4(O)[C@@H](C2)NCC[C@]314 (some centres undefined) | > 100 µM

Challenge: // returns reported TGI for input COC(=O)C1=C(C)NC(C)=C(C(=O)OC)C1c1ccc(/[N+]([O-])=C/c2ccccc2)cc1
Response given: > 100 µM

###

Tested on: IGROV1 ovarian
assay explanation: NCI tumour cell line growth inhibition, 48 h
assay endpoint: TGI (µM)
One number for each entry, in µM.

compound | measurement units | TGI
Cc1ccc(S(=O)(=O)C2=Cc3ccc(C(F)(F)F)cc3C2(O)c2cccc(C(F)(F)F)c2)cc1 (centres undefined) | µM | 7.03

Challenge: // returns reported TGI for input O=C(Nc1cccc(Cl)c1Cl)c1cccc(NC2=C(Cl)C(=O)N(Cc3ccccc3)C2=O)c1
Response given: 59.6

###

System: HOP-62 NSCLC
assay explanation: NCI tumour cell line growth inhibition, 48 h
Provide the recorded TGI for the entries that follow.

Examples with their reported TGI follow.
compound | TGI
O=S(O)CCCCSSCc1ccccc1CSSCCCCS(=O)O | > 100 µM
CCOC(=O)c1[nH]c(COC(C)=O)c(CCCOC(C)=O)c1CCCOC(C)=O | > 100 µM
COc1ccc2c(c1)CN1C(=N2)CSC1c1cc([N+](=O)[O-])ccc1Cl (configuration not stated) | > 100 µM
COc1ccccc1NC(=O)C1=C(C)NC(C)=C(C(=O)Nc2ccccc2OC)C1c1ccc([N+](=O)[O-])cc1 | > 100 µM
O=C(C[n+]1ccccc1)NNC(=O)/C(=C/c1ccc2c(c1)OCO2)NC(=O)c1ccccc1 | > 100 µM

// batch mode: one TGI value per listed entry
1. CCOC(=O)CC1CCN(C(=O)c2ccccc2)C2Cc3c([nH]c4ccccc34)C12C[N+](=O)[O-] (configuration not stated)
2. CC(=O)OCC1OC(Nc2ncc(-c3ccc(C)cc3)s2)C(OC(C)=O)C(OC(C)=O)C1OC(C)=O (configuration not stated)
3. COc1ccccc1/C=C/c1cnccn1

Response given:
> 100 µM
> 100 µM
> 10 µM

// batch mode: one TGI value per listed entry
1. N#CC(NNC(=O)Cc1ccccc1)c1ccccc1O (configuration not stated)
2. COC(=O)c1ccc(/C=C2\N=C(C)OC2=O)cc1
3. O=c1[nH]cc(COCC(F)(F)C(F)(F)C(F)(F)C(F)F)c(=O)[nH]1

Response given:
> 70.6 µM
> 100 µM
> 100 µM

Challenge: // returns reported TGI for input N#CC(C(=O)/C(=N/Nc1nc(=S)[nH]n1N)C(C#N)c1ccccc1)c1ccccc1 (configuration not stated)
Response given: > 100 µM

###

Test system: HOP-62 NSCLC
assay explanation: NCI tumour cell line growth inhibition, 48 h
assay endpoint: TGI

cpd smiles | assay endpoint | meas value
COc1cc(/C=C2\C(=O)Nc3ccc(F)cc32)cc(OC)c1OC | TGI | > 100 µM
CN(C)c1ccc2nc3ccc(=O)cc-3sc2c1 | TGI | > 56.9 µM

Okay, now this compound:
Challenge: Recall the recorded TGI for CC1=C(C(=O)Nc2c(C)cccc2C)C(c2ccccc2Cl)C(C(=O)Nc2c(C)cccc2C)=C(C)N1 with HOP-62 NSCLC and state it.
Response given: > 100 µM

###

System: MCF7 breast
assay explanation: NCI tumour cell line growth inhibition, 48 h
assay endpoint: TGI

Examples with their reported TGI follow.
compound | TGI
CNC(=S)N/N=C(C)\C(=N/NC(=S)NC)c1ccccc1 | > 100 µM
O=c1c(-c2ccccc2)c(SCCCN2CCN(c3cccc(Cl)c3)CC2)n(-c2ccccc2)c(=S)n1-c1ccccc1 | > 100 µM
Nc1c(C(=O)N/N=C/c2ccc(-c3ccc(Cl)cc3)o2)cnn1-c1ccnc2c(C(F)(F)F)cccc12 | > 100 µM

// batch mode: one TGI value per listed entry
1. COc1ccccc1/C=C/c1cnccn1
2. COC(CN(C(=O)c1ccccc1)C1CCC2(SCCS2)c2[nH]c3ccccc3c21)OC (stereo not given)

Response given:
1: > 10 µM; 2: > 100 µM

###

Test system: OVCAR-4 ovarian
assay explanation: NCI tumour cell line growth inhibition, 48 h
Provide the recorded TGI for the entries that follow.

compound | TGI
O=C1C(Cl)C(c2ccccc2)N1n1cnc2ccccc2c1=O (stereo unspecified) | > 100 µM

// batch mode: one TGI value per listed entry
1. O=C1/C(=C\c2cccn2Cc2ccccc2)c2ccccc2N1c1c(Cl)cccc1Cl
2. Cc1ccc(Nc2nc(N)c(C(=O)c3ccc(C#N)cc3)s2)cc1
3. NC(=O)C(=CNc1nc(-c2ccc(Cl)c(Cl)c2)cs1)C(N)=O
4. Fc1ccc(Nc2cc(-n3nnc4ccccc43)nc3ccccc23)cc1
5. O=C1c2cc3c(cc2CC12Cc1cc4c(cc1C2=O)CCC4)CCCC3 (stereo unspecified)

Response given:
1. > 60.4 µM
2. > 68.4 µM
3. > 100 µM
4. > 80.4 µM
5. > 100 µM

###

System: RPMI-8226 leukemia
assay explanation: NCI tumour cell line growth inhibition, 48 h
Provide the recorded TGI for the entries that follow.

Examples with their reported TGI follow.
molecule | meas value
CC1(C#N)CC(C)(C)C(/C=C2/CC(C)(C)C(/C=C3/OC(=N)CC3(C)C)=N2)=N1 (configuration not stated) | 64 µM
O=[N+]([O-])c1ccc(-n2nnc(C3=NCCCN3)c2-c2ccc(Cl)cc2)cc1 | > 100 µM
C=CCNC1=C2C[C@@H](C)C[C@@H](OC)[C@@H](OC(=O)CCCN)[C@H](C)/C=C(\C)[C@@H](OC(N)=O)[C@H](OC)/C=C\C=C(/C)C(=O)NC(=CC1=O)C2=O | 46.9 µM

// batch mode: one TGI value per listed entry
1. O=C(/C=C/c1c(O)ccc2ccccc12)c1ccc2ccccc2c1
2. CCC1c2[nH]c3ccccc3c2C[C@H]2C(=O)NC(COC(C)(C)C)C(=O)N12 (some centres not stated)
3. COc1ccc(-c2cc(-c3cccn3C)c(C#N)c(N)n2)cc1OC
4. N#CC1Nc2ccccc2[C@@H](O)C1O (some centres not stated)
5. O=C(N/N=C\c1cc(Br)ccc1O)c1ccncc1
6. CCOC(=O)C1=C(C)N(N)C(=S)NC1c1ccc(C)cc1 (configuration not stated)
7. CCOC(=O)C1N(S(=O)(=O)c2ccc(C)cc2)CCC12C(c1ccc(OC)cc1)NC1CCCCC12 (configuration not stated)

Response given:
1. > 100 µM
2. > 100 µM
3. > 100 µM
4. > 100 µM
5. > 100 µM
6. > 100 µM
7. > 100 µM

###

System: 786-0 renal
Pick from yes for active, no for inactive when you respond.

compound | assigned category
CCOC(=O)C1=C(C)N(N)C(=S)NC1c1ccc(C)cc1 (centres undefined) | no
CCN(CC)CC(C)(C)C(=O)/C=C/c1ccc(Cl)c(Cl)c1 | no
C#CC(=O)Nc1cccc(Nc2nc3c(c(NCc4ccccc4)n2)CCCC3)c1 | yes

Next:
Challenge: Can you look up the reported call for c1ccc2c3ccn4cc5c(cc4c-3nc2c1)CCCC5 for me?
Response given: no

###

Provide the recorded TGI for the entries that follow.
Test system: SW-620 colon
assay explanation: NCI tumour cell line growth inhibition, 48 h

Examples with their reported TGI follow.
compound | TGI
CN(Nc1cc(=O)[nH]c(=O)[nH]1)c1ccccc1 | > 100 µM
O=C1c2cc3c(cc2CC12Cc1cc4c(cc1C2=O)CCC4)CCCC3 (stereo unspecified) | > 100 µM
CC(=O)OCC1OC([S-])C(OC(C)=O)C(OC(C)=O)C1OC(C)=O.CC[PH+](CC)CC.CC[PH+](CC)CC.[Au].[Au] (stereo unspecified) | 0.493 µM
Cn1ccc(C(=O)NCCOCCNC(=O)c2ccn(C)c(=O)c2O)c(O)c1=O | > 100 µM
N#CC(/C(=N/NC(=O)C(=O)NN)C(=O)NC12CC3CC(CC(C3)C1)C2)c1ccccc1 (stereo unspecified) | > 100 µM

Challenge: // returns reported TGI for input O=C(CSc1nnc(-c2ccccc2NC(=O)C(F)(F)F)c(=O)[nH]1)NC(=O)Nc1ccccc1
Response given: > 100 µM
